Origin of the recorded values: the OPERA property sets (Mansouri et al. 2018)

Measured Quantity: logP
Response field accepts a number only; no unit should be typed.

Field: example entries. Status: answers known.
- Compound: "CC(C)CNc1ncnc2c1ncn2C1OC(CO)C(O)C1O (stereo not given)"
  logP: 1.01
- Compound: "CN1CC(O)N(C(=O)NC2CCCCC2)C1=O (stereo not given)"
  logP: 1.87
- Compound: "N=C1C=CC(=C(c2ccc(N)cc2)c2ccc(N)cc2)C=C1"
  logP: -0.21

Query logP for O=c1ccc2cc3ccsc3cc2o1
2.27

Tell me measured logP for CCCCCCNc1ncnc2c1ncn2C1OC(CO)C(O)C1O (stereo not given) please.
2.24

Retrieve logP measured for Cc1ccc(Cc2c[nH]cn2)cc1C and print it.
2.72

Recall and state the measured logP for Oc1ccc(CNc2ncnc3nc[nH]c23)cc1 .
1.55

Specify logP for Cc1ccc(OCC2CN=C(N)O2)cc1C (stereo not given) and stop.
2.1

Answer with reported logP of OCCCCCNc1ncnc2c1ncn2C1OC(CO)C(O)C1O (stereo not given)
-0.24

Check the records and state logP for CNc1ccncc1S(=O)(=O)NC(=NC#N)NC(C)C
-0.65

---

Where a SMILES comes first, the peptide text is derived from it.
# cutoff 1 applies to logP; >= gives 1, < gives 0

- Compound: "CC(N)C(=O)NC(Cc1ccccc1)C(=O)NCC(=O)NC(C(=O)NC(Cc1ccccc1)C(=O)O)C(C)C (stereo not given) (H-AFGVF-OH; configuration not given here)"
  Class Assignment: 0
- Compound: "Cc1cc(C)c2c(c1)COP(=O)(OCC1C=CC(n3cc(C)c(=O)[nH]c3=O)O1)O2 (stereo not given)"
  Class Assignment: 1
- Compound: "C=CCN(N=O)C(=O)N(CCCC(NC(C)=O)C(=O)NCc1ccccc1)Cc1ccccc1 (stereo not given)"
  Class Assignment: 1
- Compound: "O=c1nc(Nc2ccccc2)[nH]c2c1ncn2CCCCO"
  Class Assignment: 1
- Compound: "CCCCCCCOC(C)=O"
  Class Assignment: 1

Turning now to a further compound:
State whether the measured logP reaches 1, counting equality as reaching it, for CC(C)CC(N)C(=O)NC(CC(C)C)C(=O)NC(CC(C)C)C(=O)O (stereo not drawn) (H-Leu-Leu-Leu-OH; configuration not given here)
0

---

# maps each entry to its logP
Response field accepts a number only; no unit should be typed.

Look up logP of CC(=O)O[C@H]1[C@@H](O)C[C@H](O[C@H]2[C@@H](O)C[C@H](O[C@H]3[C@@H](O)C[C@H](O[C@H]4CC[C@@]5(C)[C@H](CC[C@@H]6[C@@H]5C[C@@H](O)[C@]5(C)[C@@H](C7=CC(=O)OC7)CC[C@]65O)C4)O[C@@H]3C)O[C@@H]2C)O[C@@H]1C and report it.
2

Indicate its recorded logP; the compound in question is Cc1nc2c3c(c(C(=O)O)cn2c1C)CCC(c1ccccc1)O3 (stereo not drawn)
4.6

Note down logP recorded for COC(=O)C(C)NP(=O)(OCC1C=CC(n2cc(C)c(=O)[nH]c2=O)O1)Oc1ccc(C(C)=O)cc1 (stereo not drawn)
0.9

---

Listed here: items and their measured logP.
Give your answer as a number; write no unit.

Known results for compounds:
- Compound: "CCOP(=O)(Oc1ccc(C#N)cc1)c1ccccc1 (stereo not drawn)"
  logP: 2.44
- Compound: "O=C1N=C(N2CCOCC2)CN1Cc1ccccc1"
  logP: 0.5

Now for a further compound.
Give the measured logP for NC(Cc1c[nH]c2ccccc12)C(=O)NC(Cc1ccccc1)C(=O)O (stereo not drawn)
-0.47
